Hey, just so you know, these numbers are from patent US20260034094A1.

target: human recombinant GCL (Homo sapiens (Human), UniProt P48506); experiment: GCL enzyme profiling assay (ADP-Glo luminescence); assay type: biochemical; details: human recombinant GCL 5 nM, 1 h preincubation with ATP; read-out: GCL IC50
Sequence (P48506 whole entry): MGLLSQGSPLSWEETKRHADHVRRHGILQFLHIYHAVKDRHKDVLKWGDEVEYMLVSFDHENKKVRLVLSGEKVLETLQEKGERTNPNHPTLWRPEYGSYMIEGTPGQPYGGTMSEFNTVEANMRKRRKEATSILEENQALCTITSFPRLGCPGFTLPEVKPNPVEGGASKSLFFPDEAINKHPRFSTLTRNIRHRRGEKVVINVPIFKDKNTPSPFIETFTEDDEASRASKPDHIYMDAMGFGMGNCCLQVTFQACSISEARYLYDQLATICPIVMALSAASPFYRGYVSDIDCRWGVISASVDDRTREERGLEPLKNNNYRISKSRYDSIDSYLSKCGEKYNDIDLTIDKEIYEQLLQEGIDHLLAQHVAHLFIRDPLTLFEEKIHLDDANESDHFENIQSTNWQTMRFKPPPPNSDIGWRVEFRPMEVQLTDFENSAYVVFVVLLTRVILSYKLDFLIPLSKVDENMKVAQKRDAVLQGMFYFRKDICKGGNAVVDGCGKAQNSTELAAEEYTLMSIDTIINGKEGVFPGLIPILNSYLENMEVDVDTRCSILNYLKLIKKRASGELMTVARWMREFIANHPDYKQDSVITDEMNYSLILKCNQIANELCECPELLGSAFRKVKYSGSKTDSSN
metric: IC50

{"columns": ["molecule", "meas value"],
 "data": [
  ["CC(C)(C)CCS(=N)(=O)CC[C@H](N)C(=O)NCC(F)(F)F (stereo partly shown)", "> 2000 µM"],
  ["CCCC(C)(C)OC(=O)[C@@H](N)CCS(=N)(=O)CCC(C)(C)C (stereo partly shown)", "> 2000 µM"],
  ["CCC(CC(F)(F)F)CS(=N)(=O)CC[C@H](N)C(=O)O (stereo partly shown)", "20 to 2000 µM"],
  ["CCc1ccccc1CCS(=N)(=O)CC[C@H](N)C(=O)O (stereo partly shown)", "≤ 20 µM"],
  ["CC(O)(CCS(=N)(=O)CC[C@H](N)C(=O)O)C(F)(F)F (stereo partly shown)", "20 to 2000 µM"],
  ["COc1ccccc1CCS(=N)(=O)CC[C@H](N)C(=O)O (stereo partly shown)", "20 to 2000 µM"],
  ["CC(C)(C)CCS(=N)(=O)CC[C@H](N)C(=O)O (stereo partly shown)", "20 to 2000 µM"],
  ["CC(C)(C)CCS(=N)(=O)CC[C@H](N)C(=O)NC1CCOCC1 (stereo partly shown)", "> 2000 µM"],
  ["N=S(=O)(CCc1ccccc1O)CC[C@H](N)C(=O)O (stereo partly shown)", "≤ 20 µM"],
  ["Cc1ccc(-c2nn[nH]n2)cc1CCS(=N)(=O)CC[C@H](N)C(=O)O (stereo partly shown)", "≤ 20 µM"],
  ["N=S(=O)(CCc1cccc(F)c1F)CC[C@H](N)C(=O)O (stereo partly shown)", "≤ 20 µM"],
  ["CCCCNC(=O)[C@@H](N)CCS(=N)(=O)CCCC(F)(F)F (stereo partly shown)", "> 2000 µM"],
  ["CC(C)(CCS(=N)(=O)CC[C@H](N)C(=O)O)c1ccc(F)cc1 (stereo partly shown)", "20 to 2000 µM"],
  ["N=S(=O)(CCC(c1ccccc1)c1ccccc1)CC[C@H](N)C(=O)O (stereo partly shown)", "20 to 2000 µM"],
  ["Cc1cccc(C)c1CCS(=N)(=O)CC[C@H](N)C(=O)O (stereo partly shown)", "20 to 2000 µM"],
  ["CC(C)(C)CCS(=N)(=O)CC[C@H](N)C(=O)NCc1cncs1 (stereo partly shown)", "> 2000 µM"],
  ["N=S(=O)(CCCC(F)(F)F)CC[C@H](N)C(=O)O (stereo partly shown)", "≤ 20 µM"],
  ["N=S(=O)(CCOCC(F)(F)F)CC[C@H](N)C(=O)O (stereo partly shown)", "20 to 2000 µM"],
  ["N=S(=O)(CCc1ccc(F)c(F)c1)CC[C@H](N)C(=O)O (stereo partly shown)", "≤ 20 µM"]
]}

---

target: human recombinant GCL (Homo sapiens (Human), UniProt P48506); assay: GCL enzyme profiling assay (ADP-Glo luminescence); assay type: biochemical; details: human recombinant GCL, ADP-Glo; read-out: GCL IC50
pIC50: −log10 of the molar value.

{"columns": ["compound", "measured on", "pIC50"],
 "data": [
  ["N=S(=O)(CCC(n1ncc(-c2ccccc2)n1)C(F)(F)F)CC[C@H](N)C(=O)O (some centres unmarked) [Compound 409]", "human recombinant GCL (Homo sapiens (Human), UniProt P48506)", "≥ 4.70"],
  ["N=S(=O)(CC[C@H](N)C(=O)O)CCC(O)(Cc1ccccc1)C(F)(F)F (some centres unmarked) [Compound 354]", "human recombinant GCL (Homo sapiens (Human), UniProt P48506)", "2.70 to 4.70"],
  ["N=S(=O)(CC[C@H](N)C(=O)O)CCC(O)(c1ccc(C(F)(F)F)cc1)C(F)(F)F (some centres unmarked) [Compound 338]", "human recombinant GCL (Homo sapiens (Human), UniProt P48506)", "≥ 4.70"],
  ["CC(C)(C)OC(=O)[C@@H](N)CC[S@](=N)(=O)CC[C@@H](O)C(F)(F)F [Compound 492]", "human recombinant GCL (Homo sapiens (Human), UniProt P48506)", "< 2.70"],
  ["COc1ccc(-c2ccc(C3(CCS(=N)(=O)CC[C@H](N)C(=O)O)CCC3)cc2)c(Cl)c1 (some centres unmarked) [Compound 400]", "human recombinant GCL (Homo sapiens (Human), UniProt P48506)", "≥ 4.70"],
  ["CC(=O)N(c1ccc(C(O)(CC[S@SP3](=N)(=O)CCC(N)C(=O)O)C(F)(F)F)cc1)c1nccs1 (centres unmarked) [compound 504]", "human recombinant GCL (Homo sapiens (Human), UniProt P48506)", "≥ 4.70"],
  ["N=S(=O)(CC[C@H](N)C(=O)O)CCC(O)(c1ncc2ccccc2n1)C(F)(F)F (some centres unmarked) [Compound 374]", "human recombinant GCL (Homo sapiens (Human), UniProt P48506)", "2.70 to 4.70"],
  ["N=S(=O)(CC[C@H](N)C(=O)O)CCC(O)(C1CCCC1)C(F)(F)F (some centres unmarked) [Compound 356]", "human recombinant GCL (Homo sapiens (Human), UniProt P48506)", "2.70 to 4.70"]
]}

---

target: human recombinant GCL (Homo sapiens (Human)); experiment: GCL enzyme profiling assay (ADP-Glo luminescence); format: biochemical; conditions: human recombinant GCL, ADP-Glo; read-out: GCL IC50
Overview of reported IC50 across a group of compounds:

{"columns": ["compound", "IC50"],
 "data": [
  ["CC1(CCS(=N)(=O)CC[C@H](N)C(=O)O)CCCCC1 (some centres unmarked)", "20 to 2000 µM"],
  ["N=S(=O)(CC[C@H](N)C(=O)O)CC[C@H](O)C(F)(F)F (single isomer, unassigned) [Compound 327]", "> 2000 µM"],
  ["COc1ccc(Cl)cc1-c1ccc(C(CCS(=N)(=O)CC[C@H](N)C(=O)O)C(F)(F)F)cc1 (some centres unmarked)", "≤ 20 µM"],
  ["N=S(=O)(CC[C@H](N)C(=O)O)CCC(O)(c1cc2cc[nH]c2cn1)C(F)(F)F (some centres unmarked)", "≤ 20 µM"],
  ["N=S(=O)(CCC(n1ncc(-c2ccccn2)n1)C(F)(F)F)CC[C@H](N)C(=O)O (some centres unmarked)", "≤ 20 µM"],
  ["COCC(CCS(=N)(=O)CC[C@H](N)C(=O)O)C(F)(F)F (some centres unmarked)", "20 to 2000 µM"],
  ["N[C@@H](CCS(=O)(=O)CCC(O)(c1cc(-c2ccccc2)sn1)C(F)(F)F)C(=O)O (some centres unmarked)", "≤ 20 µM"],
  ["COCC(C)(C)CCS(=N)(=O)CC[C@H](N)C(=O)O (some centres unmarked)", "20 to 2000 µM"],
  ["CCC(O)(CCS(=N)(=O)CC[C@H](N)C(=O)O)C(F)(F)F (some centres unmarked)", "20 to 2000 µM"],
  ["CC(CCS(=N)(=O)CC[C@H](N)C(=O)O)(c1ccccc1)C(F)(F)F (some centres unmarked)", "≤ 20 µM"],
  ["N=S(=O)(CC[C@H](N)C(=O)O)CCC1(c2ccc3[nH]ncc3c2)CCC1 (some centres unmarked)", "≤ 20 µM"],
  ["N=S(=O)(CC[C@H](N)C(=O)O)CC[C@H](O)C(F)(F)F (single isomer, unassigned) [Compound 326]", "≤ 20 µM"],
  ["Cc1ccc(-c2ccc(C(O)(CCS(=N)(=O)CC[C@H](N)C(=O)O)C(F)(F)F)cc2)c(C)c1 (some centres unmarked)", "≤ 20 µM"],
  ["N=S(=O)(CCC(C(N)=O)C(F)(F)F)CC[C@H](N)C(=O)O (some centres unmarked)", "20 to 2000 µM"],
  ["N=S(=O)(CCC(c1ccc(-c2cccc(N)c2)cc1)C(F)(F)F)CC[C@H](N)C(=O)O (some centres unmarked)", "≤ 20 µM"],
  ["N=S(=O)(CC[C@H](N)C(=O)O)CCC(O)(C1CCCCC1)C(F)(F)F (some centres unmarked)", "20 to 2000 µM"],
  ["N=S(=O)(CC[C@H](N)C(=O)O)CCC1(C(F)(F)F)OCc2ccccc21 (some centres unmarked)", "20 to 2000 µM"]
]}

---

Reported IC50 values follow for various compounds
molecular target: human recombinant GCL (Homo sapiens (Human)); test: GCL enzyme profiling assay (ADP-Glo luminescence); type: biochemical; settings: human recombinant GCL 5 nM, 1 h preincubation with ATP; read-out: GCL IC50

{"columns": ["compound", "measured on", "IC50"],
 "data": [
  ["N[C@H]1CCS(=O)(CCCC(F)(F)F)=NC1=O (stereo partly drawn) [Compound 202]", "human recombinant GCL (Homo sapiens (Human))", "20 to 2000 µM"],
  ["N=S(=O)(CCC(c1ccccc1)C(F)(F)F)CC[C@H](N)C(=O)O (stereo partly drawn) [Compound 53]", "human recombinant GCL (Homo sapiens (Human))", "20 to 2000 µM"],
  ["N=S(=O)(CCCc1cn[nH]c1)CC[C@H](N)C(=O)O (stereo partly drawn) [Compound 50]", "human recombinant GCL (Homo sapiens (Human))", "20 to 2000 µM"],
  ["CCCCS(=N)(=O)CC[C@H](NC(=O)OC)C(=O)OC (stereo partly drawn) [Compound 198]", "human recombinant GCL (Homo sapiens (Human))", "> 2000 µM"],
  ["N=S(=O)(CCc1nc(-c2ccccc2)cs1)CC[C@H](N)C(=O)O (stereo partly drawn) [Compound 17]", "human recombinant GCL (Homo sapiens (Human))", "20 to 2000 µM"],
  ["N=S(=O)(CCCC(F)(F)F)CC[C@H](N)C(=O)OCC1CCCCC1 (stereo partly drawn) [Compound 81]", "human recombinant GCL (Homo sapiens (Human))", "20 to 2000 µM"],
  ["CC#CCS(=N)(=O)CC[C@H](N)C(=O)O (stereo partly drawn) [Compound 144]", "human recombinant GCL (Homo sapiens (Human))", "20 to 2000 µM"],
  ["N=S(=O)(CCc1ccc(Cl)c(Cl)c1)CC[C@H](N)C(=O)O (stereo partly drawn) [Compound 13]", "human recombinant GCL (Homo sapiens (Human))", "≤ 20 µM"],
  ["COCCOC(=O)[C@@H](N)CCS(=N)(=O)CCCC(F)(F)F (stereo partly drawn) [Compound 83]", "human recombinant GCL (Homo sapiens (Human))", "20 to 2000 µM"]
]}
